Biological target: cynomolgus BK1-receptor (Macaca fascicularis, UniProt Q3BCU0)
Construct: expressed in transfected cells; host or cells: CHO cells (homogenate)
Assay: cynoBK1-receptor binding assay
Details: CHO cells expressing cynomolgus BK1-receptor, radioligand kallidine (DesArg10,Leu9)
PROPERTY_MEASURED: pKi
Here pKi is given on a logarithmic scale as minus log10 of the concentration in mol/L.

Which pKi value belongs to COc1ncc(C(=O)NC2(C(=O)NCc3ccc(Nc4ccc(F)cc4C#N)cc3)CC2)cn1 [(182)] ?
7.70

Which pKi is reported for this compound? CNc1ccc(C(=O)NC2(C(=O)NCc3ccc(Nc4ccc(Cl)cc4C(F)(F)F)cn3)CC2)cn1 [(347)]
7.92

Recorded pKi for CNc1cncc(C(=O)NC2(C(=O)NCc3ccc(Nc4ccc(Cl)cc4C(F)(F)F)cn3)CC2)c1 [(280)] , please?
7.60

Fill in the blank: the reported pKi of CCNc1ccc(C(=O)NC2(C(=O)NCc3ccc(Nc4ccc(Br)cc4C(F)(F)F)cn3)CC2)cn1 [(334)] is ____.
7.70

---

Target sequence: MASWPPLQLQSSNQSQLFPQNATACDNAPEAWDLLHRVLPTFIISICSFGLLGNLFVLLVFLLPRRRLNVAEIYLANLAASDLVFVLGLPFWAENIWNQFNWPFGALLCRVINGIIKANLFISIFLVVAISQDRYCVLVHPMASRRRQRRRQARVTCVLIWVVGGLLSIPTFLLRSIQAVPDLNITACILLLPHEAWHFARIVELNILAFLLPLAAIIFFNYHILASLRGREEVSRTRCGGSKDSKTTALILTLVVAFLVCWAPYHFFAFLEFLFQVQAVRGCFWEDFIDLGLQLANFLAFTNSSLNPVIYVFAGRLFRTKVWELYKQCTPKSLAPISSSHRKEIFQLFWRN
Recorded pKi, one value per entry.
// pKi: -log10(molar conc.)

Given Cc1ncc(C(=O)N[C@@]2(C(=O)NCc3ccc(Nc4ccc(F)cc4C(F)(F)F)cn3)CCOC2)cn1 , state its recorded pKi.
7.27

// query pKi value for entry O=C(N[C@@]1(C(=O)NCc2ccc(Nc3ccc(F)cc3C(F)(F)F)cn2)CCOC1)c1cncnc1
7.44

Which pKi reading was recorded for the compound Nc1cc(C(=O)N[C@@]2(C(=O)NCc3ccc(Nc4ccccc4C(F)(F)F)cc3)CCOC2)ccn1 ?
6.93

Requested read-out: pKi. Entry: O=C(NC1(C(=O)NCc2ccc(Nc3ccc(Cl)cc3C(F)(F)F)cn2)CC1)c1cnc(NC2CC2)nc1
8.26

Form field: reported pKi of CC(NC(=O)C1(NC(=O)c2cncnc2)CC1)c1ccc(Nc2ccccc2C(F)(F)F)cn1 (centres unmarked)
8.54

---

Biological target: cynomolgus BK1-receptor (Macaca fascicularis, UniProt Q3BCU0)
Construct: expressed in transfected cells; host or cells: CHO cells (homogenate)
Test: cynoBK1-receptor binding assay
Conditions: at 10 μgmol/L; CHO cells expressing cynomolgus BK1-receptor, radioligand kallidine (DesArg10,Leu9)
PROPERTY_MEASURED: inhibition at 10 µM (%)
Entry rule: numbers only, all in %.

Study these solved cases before continuing.
COMPOUND	PROPERTY_MEASURED	REPORTED
Cc1cccc(C(F)(F)F)c1Nc1ccc(CNC(=O)C2(NC(=O)c3cncnc3)CC2)nc1	inhibition at 10 µM	103
O=C(NC1(C(=O)NCc2ncc(Nc3c(F)cccc3C(F)(F)F)cc2F)CC1)c1ccnnc1	inhibition at 10 µM	103

inhibition at 10 µM for O=C(N[C@@]1(C(=O)NCc2ccc(Nc3ccccc3C(F)(F)F)cc2)CCOC1)c1cccnn1 ?
56

GET /values?readout=inhibition at 10 µM&item= CC(NC(=O)C1(NC(=O)c2cncnc2)CC1)c1ccc(Nc2ccc(Br)cc2C(F)(F)F)cn1 (stereo not shown)
106

Give the measured inhibition at 10 µM of NC(=O)c1ccc(Nc2ccc(CNC(=O)C3(NC(=O)c4cncnc4)CC3)nc2)c(C(F)(F)F)c1 .
64

I would be grateful if you could share the reported inhibition at 10 µM for Nc1cncc(C(=O)N[C@@]2(C(=O)NCc3ccc(Nc4ccc(F)cc4C(F)(F)F)cn3)CCOC2)c1 .
96

Given O=C(NC1(C(=O)NCc2ccc(Nc3c(F)cccc3C(F)(F)F)cn2)CC1)c1cncnc1 , state its recorded inhibition at 10 µM.
109
